- SYSTEM NAME: HPV-11 E2 (full length) (Human papillomavirus type 11, UniProt P04015 1-367)
- Sequence (P04015 whole entry): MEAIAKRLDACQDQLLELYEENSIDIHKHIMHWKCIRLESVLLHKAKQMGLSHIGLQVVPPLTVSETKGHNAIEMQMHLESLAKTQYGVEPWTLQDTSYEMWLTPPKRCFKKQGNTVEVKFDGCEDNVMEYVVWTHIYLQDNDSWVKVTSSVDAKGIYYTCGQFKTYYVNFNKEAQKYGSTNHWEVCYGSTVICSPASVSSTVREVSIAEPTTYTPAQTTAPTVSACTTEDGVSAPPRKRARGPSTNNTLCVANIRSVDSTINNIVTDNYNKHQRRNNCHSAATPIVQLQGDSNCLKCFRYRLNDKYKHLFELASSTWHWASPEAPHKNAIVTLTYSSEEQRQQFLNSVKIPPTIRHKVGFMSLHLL
- ASSAY EXPLANATION: competition; unlabeled competitor vs 32P-BS1; EMSA: 10 mM HEPES pH 7.9, 50 mM NaCl, 4 mM MgCl2, 10% glycerol, 5 mM DTT, 0.2 mM EDTA, 0.1 mg/mL BSA, 10 ng/uL poly(dI-dC), 10 min 30 C
- MEASUREMENT PARAMETERS: protein: recombinant; tags: N-terminal His (pET28a); chain copies: 2; label: 32P
ASSAY ENDPOINT: pKd
Friendly reminder that pKd comes from taking -log10 of the concentration in mol/L.

Please look up its pKd: BS4 (dsDNA) DNA 1: CTTGCAACCGTTTTCGGTTGCCCT DNA 2: AGGGCAACCGAAAACGGTTGCAAG 8.34

Would you kindly share the measured pKd for BS1 (dsDNA) DNA 1: GGTTCAACCGAAAACGGTTATATG DNA 2: CATATAACCGTTTTCGGTTGAACC ? 8.21

Consider the binder BS2 (dsDNA) DNA 1: GGAGGGACCGAAAACGGTTCAACC DNA 2: GGTTGAACCGTTTTCGGTCCCTCC and give its measured pKd. 8.22
